Where these numbers come from: patent US20240238448A1

assay.name: Pharmacokinetics of CEM87 in mice
condition.label: mouse, in vivo, single 30 mg/kg IP
metric: bioavailability

compound | metric | value.measured
COc1ccc2c(c1)C(c1ccc(Cl)cc1)=N[C@@H](CC(=O)NCc1cn(CCOCCOCCOCCNC(=O)CCSCCC[C@@H]3/C=C(\C)C[C@H](C)C[C@H](OC)[C@H]4O[C@@](O)(C(=O)C(=O)N5CCCC[C@H]5C(=O)O[C@H](/C(C)=C/[C@@H]5CC[C@@H](O)[C@H](OC)C5)[C@H](C)[C@@H](O)CC3=O)[C@H](C)C[C@@H]4OC)nn1)c1nnc(C)n1-2 | bioavailability | ~50%
